Entries and their measured pKi follow.
EXPERIMENTAL DETAILS: Displacement of [3H]Cl-DPDPE from delta receptor in guinea pig brain homogenate
// field semantics: pKi = negative decimal log of concentration (mol/L)

INSERT INTO measurements (entry_smiles, readout_type, reported_measurement) VALUES
  ('COc1ccc2c3c1O[C@H]1C(=O)CC[C@@]4(NC(=O)CCc5ccc(Cl)cc5)[C@@H](C2)N(CC2CC2)CC[C@]314', 'pKi', 8.29),
  ('COc1ccc2c3c1O[C@H]1C(=O)CC[C@@]4(NCCCc5ccc(Cl)cc5)[C@@H](C2)N(CC2CC2)CC[C@]314', 'pKi', 7.51),
  ('O=C(CCc1ccc(Cl)cc1)N[C@@]12CCC(=O)[C@@H]3Oc4c(O)ccc5c4[C@@]31CCN(CC1CC1)[C@@H]2C5', 'pKi', 9.22);

Using the record for O=C1CC[C@@]2(NCCCc3ccc(Cl)cc3)[C@H]3Cc4ccc(O)c5c4[C@@]2(CCN3CC2CC2)[C@H]1O5 , report its pKi.
8.96

These entries and their values trace back to BindingDB's records for doi:10.1021/jm060595u.
